molecular target: T1, TMTC4 (peptide code TMTC4-001) peptide on HLA-A*02:01 (human); experiment: cytokine release
T1 peptide: NVLEIVQKV
Experimental readout: binding result

>>> endpoint_result("R26P3H1 (TCR, V domains shown) Valpha: AQSVAQPEDQVNVAEGNPLTVKCTYSVSGNPYLFWYVQYPNRGLQFLLKYITGDNLVKGSYGFEAEFNKSQTSFHLKKPSALVSDSALYFCAVRDMNRDDKIIFGKGTRLHILP Vbeta: DGGITQSPKYLFRKEGQNVTLSCEQNLNHDAMYWYRQDPGQGLRLIYYSQIVNDFQKGDIAEGYSVSREKKESFPLTVTSAQKNPTAFYLCASSRAEGGEQYFGPGTRLTVT")
"no recognition"
>>> endpoint_result("R42P3A9 (TCR, V domains shown) Valpha: GIQVEQSPPDLILQEGANSTLRCNFSDSVNNLQWFHQNPWGQLINLFYIPSGTKQNGRLSATTVATERYSLLYISSSQTTDSGVYFCAVHNFNKFYFGSGTKLNVKP Vbeta: AAGVIQSPRHLIKEKRETATLKCYPIPRHDTVYWYQQGPGQDPQFLISFYEKMQSDKGSIPDRFSAQQFSDYHSELNMSSLELGDSALYFCASSLLGQGYNEQFFGPGTRLTVL")
"no recognition"
>>> endpoint_result("R26P1A9 (TCR, V domains shown) Valpha: SQQGEEDPQALSIQEGENATMNCSYKTSINNLQWYRQNSGRGLVHLILIRSNEREKHSGRLRVTLDTSKKSSSLLITASRAADTASYFCLIGASGSRLTFGEGTQLTVNP Vbeta: DAGVIQSPRHEVTEMGQEVTLRCKPISGHDYLFWYRQTMMRGLELLIYFNNNVPIDDSGMPEDRFSAKMPNASFSTLKIQPSEPRDSAVYFCASSYFGWNEKLFFGSGTQLSVL")
"no recognition"

Provenance of the data: patent US20190321478A1
